System: cells
ASSAY COMMENT: Cellular toxicity (cells not specified)
Format: cell-based
MEASURED ATTRIBUTE: cellular toxicity

INSERT INTO results (compound, test_result) VALUES
  ('CCOC(=O)C1=C(N)Oc2ccc(Cl)cc2C1C(C#N)C(=O)OCC (stereo not shown)', 'toxic to cells'),
  ('CCOC(=O)C1=C(N)Oc2ccc(Br)cc2C1C(C#N)C(=O)OCC (stereo not shown)', 'toxic to cells');
